Data credit: paper PMC5769330

Experiment: Plasma pharmacokinetics of danofloxacin after i.m. administration to lactating sheep fed control or flaxseed-enriched diets
Type: in vivo
Conditions: female, Assaf, im, 1.25 mg/kg, 1.25 mg/kg i.m., flaxseed 10% diet, mean ± SD, n = 6
metric name: Cmax (ng/mL)
Give bare numbers, in ng/mL.

// query Cmax value for entry "CN1C[C@@H]2C[C@H]1CN2c1cc2c(cc1F)c(=O)c(C(=O)O)cn2C1CC1"
310

* * *

Test: Milk pharmacokinetics (secretion into milk) of danofloxacin after i.m. administration to lactating sheep fed control or flaxseed-enriched diets
Type: in vivo
Conditions: female, Assaf, sheep, milk, im, 1.25 mg/kg; 1.25 mg/kg i.m.; flaxseed 15% diet; mean ± SD, n = 6
metric name: MRT (h)
Give bare numbers, in h.

Would you mind telling me what MRT value was observed for CN1C[C@@H]2C[C@H]1CN2c1cc2c(cc1F)c(=O)c(C(=O)O)cn2C1CC1 [danofloxacin] ?
5.54

* * *

Assay: Milk pharmacokinetics (secretion into milk) of danofloxacin after i.m. administration to lactating sheep fed control or flaxseed-enriched diets
Assay type: in vivo
Details: female, Assaf, sheep, milk, im, 1.25 mg/kg, milk; 1.25 mg/kg i.m.; control diet; mean ± SD, n = 6; read-out: AUC 0–24
metric name: AUC(0-t) (ng·h/mL)
Numbers only, in ng·h/mL.

Field request: AUC(0-t) | item: "CN1C[C@@H]2C[C@H]1CN2c1cc2c(cc1F)c(=O)c(C(=O)O)cn2C1CC1"
19200

* * *

Test: Plasma pharmacokinetics of danofloxacin after i.m. administration to lactating sheep fed control or flaxseed-enriched diets
Format: in vivo
Settings: female, Assaf, im, 1.25 mg/kg, 1.25 mg/kg i.m., flaxseed 15% diet, mean ± SD, n = 6
metric name: AUC(0-inf)

Which value of AUC(0-inf) has been reported for "CN1C[C@@H]2C[C@H]1CN2c1cc2c(cc1F)c(=O)c(C(=O)O)cn2C1CC1" in the records?
1810 ng·h/mL

* * *

Assay: Milk pharmacokinetics (secretion into milk) of danofloxacin after i.m. administration to lactating sheep fed control or flaxseed-enriched diets
Assay type: in vivo
Conditions: female, Assaf, sheep, milk, im, 1.25 mg/kg; 1.25 mg/kg i.m.; control diet; mean ± SD, n = 6
metric name: Tmax (h)
One number for each entry, in h.

Looking for the measured Tmax of CN1C[C@@H]2C[C@H]1CN2c1cc2c(cc1F)c(=O)c(C(=O)O)cn2C1CC1 [danofloxacin] , can you help?
2.66

* * *

Experiment: Milk pharmacokinetics (secretion into milk) of danofloxacin after i.m. administration to lactating sheep fed control or flaxseed-enriched diets
Assay type: in vivo
Conditions: female, Assaf, sheep, milk, im, 1.25 mg/kg; 1.25 mg/kg i.m.; control diet; mean ± SD, n = 6
metric name: Cmax (ng/mL)
Answers are plain numbers, in ng/mL.

Query (compound): CN1C[C@@H]2C[C@H]1CN2c1cc2c(cc1F)c(=O)c(C(=O)O)cn2C1CC1 [danofloxacin] ; field requested: Cmax
2950

* * *

Experiment: Milk pharmacokinetics (secretion into milk) of danofloxacin after i.m. administration to lactating sheep fed control or flaxseed-enriched diets
Type: in vivo
Conditions: female, Assaf, sheep, milk, im, 1.25 mg/kg; 1.25 mg/kg i.m.; control diet; mean ± SD, n = 6
Method: Eighteen lactating […] (3-4 months in lactation and weighing 66-105 kg) were used and milked twice daily. The animals were parasite-free, and drinking water was available ad libitum. […] The system consisted of a Waters 600 pump, a Waters 717 plus autosampler, and a Waters 486 fluorescence detector (Waters Corporation, Milford, MA). […] Sample detection was performed by fluorescence detection at 338 nm (excitation) and 425 nm (emission). […]
metric name: MRT

Fill blank: measured MRT of the compound CN1C[C@@H]2C[C@H]1CN2c1cc2c(cc1F)c(=O)c(C(=O)O)cn2C1CC1 [danofloxacin] is ____.
5.35 h
